All values here come from ChEMBL document CHEMBL1152978.

target: Muscarinic acetylcholine receptor M3 (Homo sapiens); test: Displacement of [3H]NMS from human muscarinic M3 receptor expressed in CHOK1 cells by microplate scintillation counting
Sequence (P20309 whole entry): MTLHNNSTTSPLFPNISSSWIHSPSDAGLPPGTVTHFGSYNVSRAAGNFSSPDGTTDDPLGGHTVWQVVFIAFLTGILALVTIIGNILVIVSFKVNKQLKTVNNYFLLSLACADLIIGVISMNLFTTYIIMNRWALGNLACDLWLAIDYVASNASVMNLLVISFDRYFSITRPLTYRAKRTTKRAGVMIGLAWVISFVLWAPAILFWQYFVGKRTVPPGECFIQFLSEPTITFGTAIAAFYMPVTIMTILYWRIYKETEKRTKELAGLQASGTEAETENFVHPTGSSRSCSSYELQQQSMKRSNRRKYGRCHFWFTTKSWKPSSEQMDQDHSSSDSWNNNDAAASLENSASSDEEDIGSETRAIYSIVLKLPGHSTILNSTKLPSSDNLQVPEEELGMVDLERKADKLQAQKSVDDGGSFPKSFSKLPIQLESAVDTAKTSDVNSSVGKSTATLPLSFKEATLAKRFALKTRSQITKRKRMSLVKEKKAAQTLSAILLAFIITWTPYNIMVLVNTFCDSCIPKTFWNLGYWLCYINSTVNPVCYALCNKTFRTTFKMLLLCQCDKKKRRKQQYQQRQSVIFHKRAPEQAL
Please respond with reported pIC50 for every item in the list.
// pIC50 here means minus log10 of the molar concentration (mol/L)

Q: Query for Muscarinic acetylcholine receptor M3 (Homo sapiens): what pIC50 does the record show for O=C(O[C@H]1C[N+]2(CCCOc3ccccc3)CCC1CC2)[C@](O)(c1cccs1)C1CCCC1.[Br-] ?
A: 9.74

Q: Write down the reported pIC50 of O=C(O[C@H]1C[N+]2(CCCOc3ccccc3)CCC1CC2)[C@](O)(c1ccccc1)c1cccs1.[Br-] , test system: Muscarinic acetylcholine receptor M3 (Homo sapiens).
A: 9.32

Q: Lookup: pIC50 / Muscarinic acetylcholine receptor M3 (Homo sapiens) / O=C(O[C@H]1C[N+]2(CCc3ccccc3)CCC1CC2)C1c2ccccc2Oc2ccccc21.[Br-]
A: 9.51

Q: Provide value of pIC50 for this record tested with Muscarinic acetylcholine receptor M3 (Homo sapiens): O=C(O[C@H]1C[N+]2(CCc3ccccc3)CCC1CC2)C1(O)c2ccccc2Oc2ccccc21.[Br-]
A: 9.55

Q: Query the reported pIC50 for Muscarinic acetylcholine receptor M3 (Homo sapiens); item: CC(C(=O)O[C@H]1C[N+]2(CCCOc3ccccc3)CCC1CC2)(c1cccs1)c1cccs1.[Br-]
A: 9.23

Q: Query the reported pIC50 for Muscarinic acetylcholine receptor M3 (Homo sapiens); item: O=C(O[C@H]1C[N+]2(CCCOc3ccccc3)CCC1CC2)C1(O)c2ccccc2-c2ccccc21.[Br-]
A: 9.15

Q: Please tell me: pIC50 of O=C(O[C@H]1C[N+]2(CCCOc3ccccc3)CCC1CC2)C(O)(c1ccsc1)c1ccsc1.[Br-] , system Muscarinic acetylcholine receptor M3 (Homo sapiens)?
A: 9.62

Q: For Muscarinic acetylcholine receptor M3 (Homo sapiens), provide pIC50 of O=C(O[C@H]1C[N+]2(CCCOc3ccccc3)CCC1CC2)[C@@](O)(c1ccccc1)c1cccs1.[Br-] please.
A: 9.60

Q: Request body: readout pIC50, system Muscarinic acetylcholine receptor M3 (Homo sapiens), query O=C(O[C@H]1C[N+]2(CCCOc3ccccc3)CCC1CC2)[C@@](O)(c1cccs1)C1CCCC1.[Br-] . Return the value.
A: 8.79

Q: Lookup: pIC50 / Muscarinic acetylcholine receptor M3 (Homo sapiens) / O=C(O[C@H]1C[N+]2(CCCCc3ccccc3)CCC1CC2)C(O)(c1cccs1)c1cccs1.[Br-]
A: 9.35

Q: # get_value(readout= pIC50, system= Muscarinic acetylcholine receptor M3 (Homo sapiens)) for O=C(O[C@H]1C[N+]2(CCCOc3ccccc3)CCC1CC2)C1(O)c2ccccc2Oc2ccccc21.[Br-]
A: 8.98

Q: Fill in the recorded pIC50 for this molecule, with Muscarinic acetylcholine receptor M3 (Homo sapiens) as test system: CC1(C(=O)O[C@H]2C[N+]3(CCCOc4ccccc4)CCC2CC3)c2ccccc2-c2ccccc21.[Br-]
A: 9.02

Q: Lab note: need pIC50 for O=C(O[C@H]1C[N+]2(CCc3ccccc3)CCC1CC2)C1(O)c2ccccc2-c2ccccc21.[Br-] on Muscarinic acetylcholine receptor M3 (Homo sapiens), anyone have it?
A: 8.98

Q: Param readout= pIC50; system= Muscarinic acetylcholine receptor M3 (Homo sapiens); entry= O=C(O[C@H]1C[N+]2(CCCOc3ccccc3)CCC1CC2)C(c1cccs1)c1cccs1.[Br-] ; returns value.
A: 9.43
